# experiment-notes: Pharmacokinetic evaluation in rats (liver-blood ratio)
# Type: in vivo, CD rats
# cond: male, CD, liver/plasma; rat, PO, 5.0 mg/kg, 6 h; read-out: L/P concentration ratio
measure-name: Kp at 6 h
Respond with the number and no other words.

Query: Which Kp at 6 h is reported for this compound? C[C@@H]1CCc2c(Oc3c(Cl)cc(-n4nc(C#N)c(=O)[nH]c4=O)cc3Cl)ccc(=O)n21 [Compound represented by formula (I)]
Result: 22.1
